# test.target: Calpain-1 catalytic subunit (Homo sapiens) (UniProt P07384)
# Sequence (P07384 whole entry): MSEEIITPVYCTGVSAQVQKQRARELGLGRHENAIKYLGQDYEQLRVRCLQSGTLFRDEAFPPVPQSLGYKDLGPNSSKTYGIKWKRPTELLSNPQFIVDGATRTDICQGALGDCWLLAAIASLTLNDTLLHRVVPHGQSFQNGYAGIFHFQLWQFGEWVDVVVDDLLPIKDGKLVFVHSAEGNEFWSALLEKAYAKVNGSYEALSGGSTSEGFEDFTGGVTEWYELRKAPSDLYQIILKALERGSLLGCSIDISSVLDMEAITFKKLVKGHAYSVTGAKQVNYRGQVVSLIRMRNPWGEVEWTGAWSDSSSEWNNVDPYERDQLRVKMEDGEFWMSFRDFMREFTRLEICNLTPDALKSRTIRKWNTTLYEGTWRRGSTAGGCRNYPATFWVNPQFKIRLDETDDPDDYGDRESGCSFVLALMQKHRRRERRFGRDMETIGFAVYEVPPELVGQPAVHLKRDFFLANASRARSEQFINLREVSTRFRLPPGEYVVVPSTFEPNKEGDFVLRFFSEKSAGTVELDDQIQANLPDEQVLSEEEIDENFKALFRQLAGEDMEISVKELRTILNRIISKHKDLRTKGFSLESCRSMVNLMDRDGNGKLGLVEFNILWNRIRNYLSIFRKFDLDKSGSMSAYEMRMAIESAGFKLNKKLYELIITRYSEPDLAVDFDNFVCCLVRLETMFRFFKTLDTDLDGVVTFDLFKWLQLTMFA
# protocol.text: Inhibitory activity against human recombinant Calpain 1 at a concentration of 10 uM
In this section we review reported inhibition values for a set of molecules.
Please respond with the number in % and leave the unit unwritten.

CC(C)C[C@H](NC(=O)OCc1ccccc1)C(=O)N[C@@H](CC(C)C)C(=O)C1N=NN=N1    11
CC(C)C[C@H](NC(=O)OCc1ccccc1)C(=O)N[C@@H](CC(C)C)C(=O)c1nccn1Cc1ccccc1    39
CC(C)C[C@H](NC(=O)OCc1ccccc1)C(=O)N[C@@H](CC(C)C)C(=O)c1ncc[nH]1    0

I have this molecule here, CC(C)C[C@H](NC(=O)OCc1ccccc1)C(=O)N[C@@H](CC(C)C)C(=O)c1nccn1COCC[Si](C)(C)C , and I need its recorded inhibition. 0

I have this molecule here, CC(C)C[C@H](NC(=O)OC(C)(C)C)C(=O)N[C@@H](CC(C)C)C(=O)c1ncc[nH]1 , and I need its recorded inhibition. 77

I have this molecule here, CC(C)C[C@H](NC(=O)OCc1ccccc1)C(=O)N[C@@H](CC(C)C)C(=O)N[C@@H](Cc1ccccc1)C(=O)c1nccs1 , and I need its recorded inhibition. 54

The measurements presented in this section are drawn from ChEMBL document CHEMBL1151500.
